Origin of values: patent US20250354195A1

- TARGET_UNDER_TEST: GSK3β (Homo sapiens, UniProt P49841+Q96SW2)
- Construct: genetically engineered using CRISPR/Cas9 technology to endogenously tag GSK3p protein with HiBiT tag at the C-terminus; host or cells: HEK293 cells, CRISPR/Cas9 knock-in of HiBiT at the endogenous GSK3B locus
- Sequence (P49841 whole entry): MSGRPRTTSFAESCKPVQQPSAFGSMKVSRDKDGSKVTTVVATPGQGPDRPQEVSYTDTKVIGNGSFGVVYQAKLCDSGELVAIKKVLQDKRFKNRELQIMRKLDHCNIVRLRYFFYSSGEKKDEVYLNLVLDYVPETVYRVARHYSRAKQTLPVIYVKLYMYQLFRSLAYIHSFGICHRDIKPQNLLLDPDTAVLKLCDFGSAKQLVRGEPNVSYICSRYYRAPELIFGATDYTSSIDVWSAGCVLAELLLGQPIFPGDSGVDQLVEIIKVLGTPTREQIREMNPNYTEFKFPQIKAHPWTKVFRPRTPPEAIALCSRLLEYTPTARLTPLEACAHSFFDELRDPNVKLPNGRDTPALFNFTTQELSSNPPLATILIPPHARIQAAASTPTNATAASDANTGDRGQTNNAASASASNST
- Sequence (Q96SW2 whole entry): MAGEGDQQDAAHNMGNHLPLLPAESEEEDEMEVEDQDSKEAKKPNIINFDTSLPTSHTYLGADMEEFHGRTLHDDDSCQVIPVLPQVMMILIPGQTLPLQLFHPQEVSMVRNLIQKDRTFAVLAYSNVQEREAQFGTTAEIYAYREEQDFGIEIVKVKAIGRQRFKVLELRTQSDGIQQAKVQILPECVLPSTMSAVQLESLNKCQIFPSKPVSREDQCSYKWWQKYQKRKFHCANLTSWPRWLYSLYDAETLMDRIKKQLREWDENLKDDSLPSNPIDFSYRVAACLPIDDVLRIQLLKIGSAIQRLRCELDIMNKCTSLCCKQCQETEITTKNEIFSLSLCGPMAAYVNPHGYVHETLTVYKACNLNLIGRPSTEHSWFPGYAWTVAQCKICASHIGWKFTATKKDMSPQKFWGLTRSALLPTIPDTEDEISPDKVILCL
- Sequence (Q16531 whole entry partner): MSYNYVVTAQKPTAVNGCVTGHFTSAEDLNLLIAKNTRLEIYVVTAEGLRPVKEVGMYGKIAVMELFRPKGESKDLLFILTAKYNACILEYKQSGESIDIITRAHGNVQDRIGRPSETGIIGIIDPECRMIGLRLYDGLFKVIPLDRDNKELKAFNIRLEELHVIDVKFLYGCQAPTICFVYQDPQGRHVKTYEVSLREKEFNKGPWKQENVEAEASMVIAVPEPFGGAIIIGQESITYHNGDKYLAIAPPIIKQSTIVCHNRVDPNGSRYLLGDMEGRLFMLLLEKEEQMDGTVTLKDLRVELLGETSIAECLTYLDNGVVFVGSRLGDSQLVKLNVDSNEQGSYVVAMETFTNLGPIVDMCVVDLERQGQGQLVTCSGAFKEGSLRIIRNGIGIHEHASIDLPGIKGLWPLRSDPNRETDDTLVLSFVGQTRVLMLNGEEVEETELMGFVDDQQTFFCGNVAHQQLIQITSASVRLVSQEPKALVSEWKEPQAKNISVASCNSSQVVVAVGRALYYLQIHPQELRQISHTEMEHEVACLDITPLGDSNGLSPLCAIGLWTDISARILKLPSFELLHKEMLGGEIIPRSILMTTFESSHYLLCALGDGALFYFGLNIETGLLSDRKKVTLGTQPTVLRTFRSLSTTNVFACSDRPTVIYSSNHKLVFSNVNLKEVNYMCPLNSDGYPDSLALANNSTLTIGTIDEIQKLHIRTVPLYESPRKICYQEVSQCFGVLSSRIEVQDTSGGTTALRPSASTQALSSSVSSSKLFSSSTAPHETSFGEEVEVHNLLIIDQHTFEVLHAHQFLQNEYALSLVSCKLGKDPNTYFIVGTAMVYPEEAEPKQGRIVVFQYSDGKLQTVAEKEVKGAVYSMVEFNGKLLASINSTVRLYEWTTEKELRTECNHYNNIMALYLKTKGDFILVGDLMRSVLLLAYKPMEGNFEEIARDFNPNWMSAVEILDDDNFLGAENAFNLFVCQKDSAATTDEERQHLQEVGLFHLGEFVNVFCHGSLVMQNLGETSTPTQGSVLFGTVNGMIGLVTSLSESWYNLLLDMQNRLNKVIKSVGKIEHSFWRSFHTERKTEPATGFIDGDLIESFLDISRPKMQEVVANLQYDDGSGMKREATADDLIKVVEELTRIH
- RUN_DESCRIPTION: High throughput screening for GSK3β-HiBiT targeted degradation (Nano-Glo HiBiT Lytic luminescence)
- Assay type: cell-based
- PARTICULARS: HEK293 cells with endogenously HiBiT-tagged GSK3β, 24 h incubation; products of one-pot plate array (FIG. 1, Method A)
READOUT_TYPE: Dmax (maximal effect)

A selection of reference data follows.
COc1ccc(-c2ocnc2C(=O)NCCCn2cc(COc3ccc(CN4CCN(Cc5ccc(N6CCC(=O)NC6=O)cc5)CC4)cc3)nn2)cc1Cl [AHD2B-1-G3]    <30%
COc1ccc(-c2ocnc2C(=O)NCCCn2cc(CCCCCN3CCCN(Cc4cccc(N5CCC(=O)NC5=O)c4)CC3)nn2)cc1Cl [AHD2B-1-A9]    <30%
COc1ccc(-c2ocnc2C(=O)NCCCn2cc(CCCCCN3CCN(Cc4ccc(N5CCC(=O)NC5=O)cc4)CC3)nn2)cc1Cl [AHD2B-1-G7]    <30%
COc1ccc(-c2ocnc2C(=O)NCCCn2cc(COC3CCN(Cc4ccc(N5CCC(=O)NC5=O)cc4)CC3)nn2)cc1Cl [AHD2B-1-G5]    <30%

The record that follows has no Dmax (maximal effect) shown yet.
Q) Given the compound COc1ccc(-c2ocnc2C(=O)NCCCn2cc(CCCOc3ccc(CN4CCN(Cc5ccc6c(N7CCC(=O)NC7=O)nn(C)c6c5)CC4)cc3)nn2)cc1Cl [AHD2B-1-D4] , what is its reported Dmax (maximal effect)?
A) 41%
